FYI, the data here is from paper PMC4336329.

Tested System: human ether-à-go-go-related gene (hERG) potassium channel (human, UniProt Q12809)
Sequence (Q12809 whole entry, looked up): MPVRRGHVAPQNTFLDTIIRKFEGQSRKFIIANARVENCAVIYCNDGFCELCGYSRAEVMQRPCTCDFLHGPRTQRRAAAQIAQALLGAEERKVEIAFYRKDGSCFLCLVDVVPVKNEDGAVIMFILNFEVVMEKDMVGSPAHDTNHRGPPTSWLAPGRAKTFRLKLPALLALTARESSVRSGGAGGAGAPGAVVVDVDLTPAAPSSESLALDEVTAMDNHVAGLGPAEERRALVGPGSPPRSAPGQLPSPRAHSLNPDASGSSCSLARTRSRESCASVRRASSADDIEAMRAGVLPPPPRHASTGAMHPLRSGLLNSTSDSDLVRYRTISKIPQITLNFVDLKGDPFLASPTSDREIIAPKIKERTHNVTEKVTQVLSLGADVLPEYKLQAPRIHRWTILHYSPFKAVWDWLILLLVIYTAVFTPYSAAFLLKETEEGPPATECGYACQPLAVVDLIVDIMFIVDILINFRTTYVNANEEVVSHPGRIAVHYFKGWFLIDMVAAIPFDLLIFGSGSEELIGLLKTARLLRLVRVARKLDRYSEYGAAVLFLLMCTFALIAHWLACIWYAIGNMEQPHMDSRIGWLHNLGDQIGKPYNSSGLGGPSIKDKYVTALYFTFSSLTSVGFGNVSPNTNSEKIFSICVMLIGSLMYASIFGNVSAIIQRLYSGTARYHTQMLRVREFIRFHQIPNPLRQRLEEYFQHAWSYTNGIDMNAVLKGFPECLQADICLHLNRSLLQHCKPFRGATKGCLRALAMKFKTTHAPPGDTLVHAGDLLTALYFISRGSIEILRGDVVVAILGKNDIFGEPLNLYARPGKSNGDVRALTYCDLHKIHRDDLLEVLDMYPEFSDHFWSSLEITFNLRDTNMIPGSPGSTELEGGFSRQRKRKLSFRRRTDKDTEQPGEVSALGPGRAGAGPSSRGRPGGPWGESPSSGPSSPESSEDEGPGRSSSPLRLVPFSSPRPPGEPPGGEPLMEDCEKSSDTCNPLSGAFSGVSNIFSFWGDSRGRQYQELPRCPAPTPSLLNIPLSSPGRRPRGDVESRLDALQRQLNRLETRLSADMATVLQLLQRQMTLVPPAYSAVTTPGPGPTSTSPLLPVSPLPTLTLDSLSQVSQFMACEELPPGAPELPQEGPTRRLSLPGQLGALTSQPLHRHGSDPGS
Experimental Details: primary screen, population patch clamp on CHO cells stably expressing hERG; higher = less effect of the substance
Among all 310,000 compounds or so, about 14,000 (4.5%) showed an effect of 50% or more. The effect is printed as a negative number. The sample as a whole holds a higher share of strong results than the screen did.
molecules and their reported hERG current change (%, negative = inhibition) at 10uM
Measured Attribute: hERG current change (%, negative = inhibition) at 10uM (%)

>>> measured_value("C/C(=N\\Nc1nc2ccccc2[nH]1)c1ccc(C)o1")
-17.7
>>> measured_value("CC(CCc1ccco1)NC(=O)c1cc2c(-c3ccccc3F)nn(C)c2s1 (stereo not drawn)")
-5.86
>>> measured_value("CN(C)C(=O)c1cc(C(=O)c2ccccc2Cl)c[nH]1")
11.8
>>> measured_value("CCC(C(=O)NCCN1CCOCC1)n1c2ccccc2c2nc(=O)cc(C)n21 (stereo not drawn)")
23.1
>>> measured_value("C=C(C)[C@@H]1CC=C(CN2CCC(N3CCC(C(=O)N4CCCC4)CC3)CC2)CC1")
-82.2
>>> measured_value("Cc1ccc(C(C)(C)C)cc1S(=O)(=O)Nc1nc2ccccc2nc1Cl")
-33.6
>>> measured_value("COc1cccc(CN(C)C(=O)c2cc(S(=O)(=O)NC3CCCCC3)ccc2C)c1OC")
-4.41
>>> measured_value("CCc1ccc(CN2CCC(N3CCC(C(=O)N4CCCC4)CC3)CC2)o1")
-70
>>> measured_value("CNC(=O)CCCN1C(=O)c2ccccc2Sc2ncccc21")
23.9
>>> measured_value("CCC1(C(=O)OC)CCc2c(cc(OC)c3ccccc23)C1=O (stereo not drawn)")
3.07
>>> measured_value("COc1cccc(C(=O)NCC2CCCN2S(=O)(=O)c2ccccc2)c1 (stereo not drawn)")
2.72
>>> measured_value("Cc1cc(C)cc(N(C(=O)c2snc(C(N)=O)c2N)C(C(=O)NCC2CCCO2)c2cccs2)c1 (stereo not drawn)")
-18.7

* * *

Tested System: human ether-à-go-go-related gene (hERG) potassium channel (human)
Experimental Details: primary screen, population patch clamp on CHO cells stably expressing hERG; higher = less effect of the substance
The campaign covered roughly 310,000 compounds. About 14,000 (4.5%) showed an effect of 50% or more. Effects have a minus sign here. The entries come from a sample that favours strong results as a whole.
Measured Attribute: hERG current change (%, negative = inhibition) at 10uM (%)

>>> measured_value("CCOC(=O)C1CCCN(C(=O)c2ccc3nc(-c4cccc(OC)c4)oc3c2)C1 (centres unmarked)")
-28.6
>>> measured_value("COc1ccc(/C=C2\\CCc3ccccc3C2=O)cc1CN1CCOCC1")
-33.6
>>> measured_value("Cc1ccc(C(=O)NCCc2ccc(S(N)(=O)=O)cc2)o1")
16.1
>>> measured_value("COc1ccc(C(=O)/C=C/c2ccc(OC)c(CN3CCOCC3)c2)cc1")
-56.3
>>> measured_value("CSc1nnc2c3ccccc3n(Cc3ccccc3)c2n1")
25.8
>>> measured_value("CCn1c2ccccc2c2nnc(SCCN3CCCCC3)nc21")
-39.1
>>> measured_value("CCOc1ccc(S(=O)(=O)NCCC(=O)NCc2ccco2)cc1")
-0.369
>>> measured_value("COc1ccc(/C=N/NC(=O)c2ccc(Br)cc2)cc1CN1CCOCC1")
-64.8
>>> measured_value("O=C(NNC(=S)NCc1ccco1)c1ccc(Cl)s1")
14.5
>>> measured_value("COc1ccc(/C=C/C(=O)c2ccc(O)cc2)cc1CN1CCOCC1")
-11.3
>>> measured_value("O=C(c1cccs1)N1CCN(c2ccccc2)CC1")
-0.00412

* * *

The compounds listed here are annotated with their hERG current change (%, negative = inhibition) at 10uM.
Tested System: human ether-à-go-go-related gene (hERG) potassium channel (human, UniProt Q12809);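 further: peak tail current of the secondary pulse compared with the same well before compound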
Experimental Details: primary screen, population patch clamp on CHO cells stably expressing hERG; higher = less effect of the substance
The whole screen tested about 310,000 compounds, of which about 14,000 (4.5%) showed an effect of 50% or more. The effect is printed as a negative number. Shown is part of a subset that was picked to be rich in strong results.
Measured Attribute: hERG current change (%, negative = inhibition) at 10uM (%)

>>> measured_value("OCC1(CCCc2ccccc2)CCN(Cc2ccc(F)cc2)CC1")
-72.9
>>> measured_value("CCCCC1C(=O)N(c2ccccc2)N(c2ccc(O)cc2)C1=O (stereo not shown)")
-9
>>> measured_value("COc1ccc(C(=O)C2CCCN(Cc3ccc4c(c3)OCCO4)C2)cc1F (stereo not shown)")
-74.7
>>> measured_value("O=C(c1ccc(Cl)cc1)C1CCCN(Cc2ccc3c(c2)OCCO3)C1 (stereo not shown)")
-73.5
>>> measured_value("CCCN1CCC(=O)N([C@H](CO)c2ccccc2)CC1")
9.36
>>> measured_value("Cc1ccccc1COc1ccc(-c2nn[nH]n2)cc1")
13
>>> measured_value("COc1ccc(C(=O)C2CCCN(Cc3ccc(Sc4nncn4C)o3)C2)cc1F (stereo not shown)")
-15.4
>>> measured_value("O=C1CCN(CCCc2ccccc2)CCN1[C@H](CO)c1ccccc1")
-29.7
>>> measured_value("CCOc1ccccc1C1CC(c2cccc(NS(C)(=O)=O)c2)=NN1C(=O)c1ccccc1 (stereo not shown)")
-38.1
>>> measured_value("COc1ccc(F)cc1C(=O)C1CCCN(Cc2ccc3c(c2)OCCO3)C1 (stereo not shown)")
-54.3
>>> measured_value("Cc1ccccc1-c1ncc(CN2CCC(CO)(CCCc3ccccc3)CC2)cn1")
-10.9
>>> measured_value("O=C(Nc1nnc(SCc2ccccc2Cl)s1)c1cccc([N+](=O)[O-])c1")
-3.26
>>> measured_value("O=C(c1ccccc1)N1N=C(C(F)(F)F)CC1(O)c1ccccc1 (stereo not shown)")
10.6

* * *

Tested System: human ether-à-go-go-related gene (hERG) potassium channel (human);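 further: peak tail current of the secondary pulse compared with the same well before compound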
Experimental Details: primary screen, population patch clamp on CHO cells stably expressing hERG; higher = less effect of the substance
Among all 310,000 compounds or so, about 14,000 (4.5%) showed an effect of 50% or more. The effect is printed as a negative number. The list comes from a sample in which strong results are over-represented; it also holds close analogues and randomly drawn compounds.
Measured Attribute: hERG current change (%, negative = inhibition) at 10uM (%)

>>> measured_value("O=C(CCN1C(=O)C2C3C=CC(C3)C2C1=O)N1CCN(c2ccccc2Cl)CC1 (stereo not drawn)")
-57.2
>>> measured_value("O=C(NCCN1CCN(c2ccccc2)CC1)c1cccc(Br)c1")
-60.2
>>> measured_value("COC(=O)c1ccc(-c2noc(CN(Cc3ccncc3)CC3CCCO3)n2)cc1 (stereo not drawn)")
-28.5
>>> measured_value("CN1CCN(C(=O)c2ccc(C3SCC(=O)N3Cc3ccco3)cc2)CC1 (stereo not drawn)")
6.13
>>> measured_value("CN(C)CC(C)(C)CNC(C(=O)Nc1ccc(Cl)cc1C(F)(F)F)c1ccccc1 (stereo not drawn)")
-76.9
>>> measured_value("O=C1CC[C@@H](CN(Cc2ccccn2)Cc2nc(Cc3cccc(C(F)(F)F)c3)no2)N1")
-48.4
>>> measured_value("C=CCn1cccc(C(=O)Nc2ccc(C)cc2)c1=O")
-7.96
>>> measured_value("COc1ccc(-n2nc(C(=O)NCC(=O)NC(C)C)c3ccccc3c2=O)cc1")
13.7
>>> measured_value("O=C(CSc1ncnc2sccc12)Nc1ccccc1")
21.2

* * *

# maps each entry to its hERG current change (%, negative = inhibition) at 10uM
Tested System: human ether-à-go-go-related gene (hERG) potassium channel (human, UniProt Q12809);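 further: peak tail current of the secondary pulse compared with the same well before compound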
Experimental Details: primary screen, population patch clamp on CHO cells stably expressing hERG; higher = less effect of the substance
Protocol: Briefly, Chinese hamster ovary (CHO) cells stably expressing the hERG channel were dislodged from tissue culture flasks and dispensed into PPC plates. […] During the recording, background leak currents were estimated by a 100 ms step to -80 mV from an initial holding potential of -70 mV and subtracted from the subsequent current measurement. The campaign was conducted in two phases using slight differences in recording protocol. […]
Hit rate of the full screen: of about 310,000 compounds, about 14,000 (4.5%) showed an effect of 50% or more. Effects have a minus sign here. The sample holds strong results, similar compounds and a random draw of the others, so the mix is not that of the screen.
Measured Attribute: hERG current change (%, negative = inhibition) at 10uM (%)

>>> measured_value("CCN(C(=O)CSc1ccc2ccccc2n1)C1CCS(=O)(=O)C1 (stereo not drawn)")
-7.61
>>> measured_value("O=C(Cc1coc2cc3c(cc12)CCC3)NCC1(N2CCCCC2)CCCCC1")
-76.9
>>> measured_value("COc1ccccc1NC(=O)c1ccc(N2CC3CC(C2)c2cccc(=O)n2C3)c(NC(=O)c2cccnc2)c1 (stereo not drawn)")
6.33

* * *

Tested System: human ether-à-go-go-related gene (hERG) potassium channel (human, UniProt Q12809);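 further: peak tail current of the secondary pulse compared with the same well before compound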
Experimental Details: primary screen, population patch clamp on CHO cells stably expressing hERG; higher = less effect of the substance
About 14,000 (4.5%) of roughly 310,000 compounds showed an effect of 50% or more. Effects have a minus sign here. For the sample, strong results were picked, then their nearest neighbours and some compounds at random.
Entries and their hERG current change (%, negative = inhibition) at 10uM
Measured Attribute: hERG current change (%, negative = inhibition) at 10uM

>>> measured_value("CC(=O)c1c(N2CCN(C(=O)c3ccco3)CC2)nc(=S)n(-c2ccccc2)c1C")
"-1.95%"
>>> measured_value("CCOC(=O)Cn1c(=O)n(Cc2ccco2)c(=O)c2ccc(C(=O)NC3CCCC3)cc21")
"-18.9%"
>>> measured_value("Cc1nnc(SCc2nc3ccccc3s2)n1-c1ccccc1")
"2.82%"
>>> measured_value("CCOc1ccc2nc(NCCNC(=O)CC)c(C#N)cc2c1")
"-12%"
>>> measured_value("CC1=C/C(=N\\OS(=O)(=O)c2ccccc2)C(C)=CC1=O")
"-9.37%"
>>> measured_value("CN(CCOc1ccccc1)C(=O)CCc1c[nH]c2ccccc12.Cl")
"-0.585%"
>>> measured_value("COc1cccc2sc(N(CCCN(C)C)C(=O)COc3ccc(Cl)cc3)nc12.Cl")
"-80.2%"
>>> measured_value("Cn1c(=O)c2c(nc(Br)n2CCCc2ccccc2)n(C)c1=O")
"-9.05%"
>>> measured_value("Cc1sc2nc(SCc3ccccc3)n(Cc3ccco3)c(=O)c2c1C")
"-2.09%"
>>> measured_value("COC(c1ccccc1)c1nnc(CCC(=O)NC2C3CC4CC(C3)CC2C4)o1 (stereo not shown)")
"-3.85%"
>>> measured_value("Fc1cccc(C2CCCCN2Cc2nc(C3CC3)no2)c1 (stereo not shown)")
"13.3%"
>>> measured_value("O=C(O)C(=O)O.O=[N+]([O-])c1ccc(S(=O)(=O)N2CCN(C3CCN(Cc4ccccc4)CC3)CC2)cc1")
"-78.2%"
>>> measured_value("O=C(Nc1ccccc1)C1CC(=O)n2ncnc2N1 (stereo not shown)")
"6.48%"
>>> measured_value("O=C(COc1ncnc2ccccc12)Nc1ccc(Cl)c([N+](=O)[O-])c1")
"-7.85%"
>>> measured_value("COc1cc2c(cc1OC)-c1cc(NC3CC3)nc(=O)n1CC2")
"-24.8%"
>>> measured_value("Cn1c(Cc2ccccc2)nnc1SCC(=O)Nc1ccc2c(c1)OCO2")
"5.64%"
>>> measured_value("COc1ccc(C(=O)/C=C/c2cn(CC(O)CN3CCOCC3)c3ccccc23)cc1 (stereo not shown)")
"3.55%"
>>> measured_value("CCCCCCNc1cc2n(c(=O)n1)CCc1cc(OC)c(OC)cc1-2")
"-46.7%"
>>> measured_value("C=CCn1c(SCc2ccc(C(=O)O)cc2)nc2sc(C)c(C)c2c1=O")
"-4.36%"
>>> measured_value("Cc1cc(NC(=O)COC(=O)c2cc(S(=O)(=O)N(C)c3ccccc3)ccc2Cl)no1")
"0.766%"
>>> measured_value("COc1ccccc1N1CCN(C2CCN(S(=O)(=O)c3ccc(C)cc3)CC2)CC1")
"-36.4%"
>>> measured_value("c1ccc(-c2ccc(-c3ccccn3)s2)nc1")
"-8.87%"
